Hey, just so you know, these numbers are from ChEMBL document CHEMBL5360650.

molecular target: Hepatitis A virus cellular receptor 2 (Homo sapiens, UniProt Q8TDQ0); assay: Binding affinity to His-tagged recombinant human TIM3 expressed in HEK293 cells assessed as dissociation constant by MST assay; type: cell-based
Sequence (Q8TDQ0 whole entry): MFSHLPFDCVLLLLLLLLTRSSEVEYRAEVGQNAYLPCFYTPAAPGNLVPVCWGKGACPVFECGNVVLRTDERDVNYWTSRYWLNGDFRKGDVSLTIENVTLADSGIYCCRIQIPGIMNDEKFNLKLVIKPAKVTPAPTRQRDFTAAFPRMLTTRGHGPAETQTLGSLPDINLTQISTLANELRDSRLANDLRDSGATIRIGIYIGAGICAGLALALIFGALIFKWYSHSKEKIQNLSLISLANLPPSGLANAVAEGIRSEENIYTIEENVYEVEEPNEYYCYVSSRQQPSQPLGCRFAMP
value-type: Kd (nM)
Use nM as the unit, but write only the number.

Provide only the value of recorded Kd for COc1ccc(-c2noc(-c3cccc(OCC(=O)Nc4ccc(OC)cc4OC)c3)n2)cc1
0.58

---

biological target: Hepatitis A virus cellular receptor 2 (Homo sapiens, UniProt Q8TDQ0); experiment: Binding affinity to His-tagged recombinant human TIM3 expressed in HEK293 cells assessed as dissociation constant by sensor chip immobilization based SPR analysis
value-type: Kd (µM)
Use µM as the unit, but write only the number.

The examples below pair each entry with its known result.
smiles-data	readout-number
COc1ccc(-c2noc(-c3cccc(OCC(=O)Nc4cccc(C)c4)c3)n2)cc1	3.12
COc1ccc(-c2noc(-c3cccc(OCC(=O)Nc4ccccc4F)c3)n2)cc1	27.6
Cc1cccc(-c2noc(-c3cccc(NC(=O)COc4ccccc4)c3)n2)c1	46.3
COc1ccc(-c2noc(-c3cccc(OCC(=O)Nc4ccncc4)c3)n2)cc1	2.01
COc1ccc(-c2noc(-c3cccc(NC(=O)COc4ccc(C)cc4)c3)n2)cc1	9.45
Cc1ccc(Nc2nc(C)cc(Nc3ccc(NC(=O)c4ccc5c(c4)OCO5)cc3)n2)cc1	17.3
CCOc1ccc(NC(=O)COc2cccc(-c3nc(-c4ccc(OC)cc4)no3)c2)cc1	1.35
COc1ccc(-c2noc(-c3cccc(OCC(=O)Nc4cc(OC)ccc4OC)c3)n2)cc1	0.98
COc1ccc(-c2noc(-c3cccc(OCC(=O)Nc4ccc(OC)cc4OC)c3)n2)cc1	0.61
COc1ccc(-c2noc(-c3cccc(NC(=O)COc4cccc(C)c4)c3)n2)cc1	6.04

Provide only the value of recorded Kd for COc1ccc(-c2noc(-c3cccc(OCC(=O)NCc4ccco4)c3)n2)cc1
11.6

Provide only the value of recorded Kd for Cc1ccc(-c2noc(-c3cccc(NC(=O)COc4ccccc4)c3)n2)cc1
42.4

Provide only the value of recorded Kd for COc1ccc(-c2noc(-c3cccc(NC(=O)COc4ccccc4)c3)n2)cc1
12.7

Provide only the value of recorded Kd for COc1ccc(-c2noc(-c3cccc(OCC(=O)Nc4ccc(C)nc4)c3)n2)cc1
2.47

Provide only the value of recorded Kd for O=C(COc1ccccc1)Nc1cccc(-c2nc(-c3ccccc3)no2)c1
63.7

Provide only the value of recorded Kd for COc1ccc(-c2noc(-c3ccccc3OCC(=O)Nc3cc(C)cc(C)c3)n2)cc1
28.9

Provide only the value of recorded Kd for COc1ccc(-c2noc(-c3cccc(OCC(=O)Nc4cccc(OC)c4)c3)n2)cc1
1.63

Provide only the value of recorded Kd for COc1cc(-c2cc(OC)c3c(C)oc(C)c3c(=O)c2)ccc1OC(=O)c1ccc(C)cc1
28.9
